# binding ratio per record follows
molecular target: T1, His-tagged human TFR1 (transferrin receptor 1) protein (human, UniProt P02786 89-760); assay: BLI (Octet) binning; hTFR1-His captured on HIS1K; ratio = binding of analyte 2 / binding of analyte 1; competitor (analyte 1, bound first): JR141-N
T1 construct: Bought protein; The order of the tag and the receptor part is not known; also called hTFR1-His; ACROBiosystems Cat #: CD1-H5243; not shown: His tag
T1 sequence (P02786 89-760 limits assumed): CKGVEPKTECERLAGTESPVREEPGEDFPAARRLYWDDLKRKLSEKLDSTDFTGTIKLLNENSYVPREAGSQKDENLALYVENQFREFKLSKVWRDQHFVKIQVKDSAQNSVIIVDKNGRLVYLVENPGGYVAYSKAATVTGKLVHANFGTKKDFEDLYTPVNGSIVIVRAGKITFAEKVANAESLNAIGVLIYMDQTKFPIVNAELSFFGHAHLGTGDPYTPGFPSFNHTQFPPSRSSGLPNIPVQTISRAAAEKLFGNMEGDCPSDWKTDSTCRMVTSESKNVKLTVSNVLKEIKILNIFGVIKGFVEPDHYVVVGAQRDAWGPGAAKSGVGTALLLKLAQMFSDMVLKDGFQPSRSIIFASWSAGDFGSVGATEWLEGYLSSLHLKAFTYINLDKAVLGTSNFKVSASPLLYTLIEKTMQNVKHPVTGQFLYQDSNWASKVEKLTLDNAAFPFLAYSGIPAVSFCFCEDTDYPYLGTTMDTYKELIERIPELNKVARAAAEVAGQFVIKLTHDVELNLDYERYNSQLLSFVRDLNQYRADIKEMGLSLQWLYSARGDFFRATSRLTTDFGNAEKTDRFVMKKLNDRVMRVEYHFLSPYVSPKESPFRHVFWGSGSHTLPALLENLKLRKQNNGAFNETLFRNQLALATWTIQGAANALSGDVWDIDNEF
recorded_endpoint: binding ratio

[[record]]
binder = "24C9 (antibody, human IgG1, V domains shown, Heavy-chain antibody without light chain; also called anti-TFR1 antibody 24C9) VH: EVQLVQSGGGVVQPGRSLRLSCAASGFTLSSYGMYWVRQAPGKGREWVAFIRFDESKKYYADSVKGRFTISRDNSKNTLYLQMNSLRAEDTAVYYCARDGEGGYCTNGVCHGLDVWGQGTTVTVSS"
readout_value = 0.8

[[record]]
binder = "JR141-N (antibody, V domains shown, also called positive control; JR141 VH and VL on human IgG1 N297A) VH: EVQLVQSGAEVKKPGESLKISCKGSGYSFTNYWLGWVRQMPGKGLEWMGDIYPGGDYPTYSEKFKVQVTISADKSISTAYLQWSSLKASDTAMYYCARSGNYDEVAYWGQGTLVTVSS VL: DIVMTQTPLSLSVTPGQPASISCRSSQSLVHSNGNTYLHWYLQKPGQSPQLLIYKVSNRFSGVPDRFSGSGSGTDFTLKISRVEAEDVGVYYCSQSTHVPWTFGQGTKVEIK"
readout_value = 0

[[record]]
binder = "24G5 (antibody, human IgG1, V domains shown, Heavy-chain antibody without light chain; also called anti-TFR1 antibody 24G5) VH: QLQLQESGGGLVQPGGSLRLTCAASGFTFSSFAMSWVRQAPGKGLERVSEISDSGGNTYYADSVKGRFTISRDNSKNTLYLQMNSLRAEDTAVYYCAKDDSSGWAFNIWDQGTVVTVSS"
readout_value = 0.2

[[record]]
binder = "24A1 (antibody, human IgG1, V domains shown, Heavy-chain antibody without light chain; also called anti-TFR1 antibody 24A1) VH: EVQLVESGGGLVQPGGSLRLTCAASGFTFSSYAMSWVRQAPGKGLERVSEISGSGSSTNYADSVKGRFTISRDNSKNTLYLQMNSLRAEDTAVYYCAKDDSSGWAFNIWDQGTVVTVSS"
readout_value = 0.3

[[record]]
binder = "23B8 (antibody, V domains shown, Heavy-chain antibody without light chain; also called anti-TFR1 antibody 23B8) VH: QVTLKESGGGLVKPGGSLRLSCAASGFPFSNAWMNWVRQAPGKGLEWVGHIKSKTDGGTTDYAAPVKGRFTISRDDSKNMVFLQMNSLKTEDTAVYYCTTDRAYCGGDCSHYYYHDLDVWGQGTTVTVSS"
readout_value = 1.1

